Values were extracted from ChEMBL document CHEMBL3352021.

System: Human immunodeficiency virus
assayNotes: Antiviral activity against HIV infected in PBMC assessed as protein-adjusted compound concentration
Assay type: functional, organism-based
studyConditions: Human immunodeficiency virus 1
Measured IC50 by item
Provide only the numeric value, understood in nM.

Sample records with IC50:
CNC(=O)Cn1c(=O)c(C(=O)NCCOC)c(O)c2ncc(Cc3ccc(F)cc3)cc21 = 10
CNC(=O)c1c(O)c2ncc(Cc3ccc(F)cc3)cc2n(CC(=O)N(C)C)c1=O = 14

Now examine the next entry.
Data request: GET /values?readout=IC50&item= COCCNC(=O)c1c(O)c2ncc(Cc3ccc(F)cc3)cc2n(CC(=O)N(C)C)c1=O
Data returned: 13

====

testedOn: Human immunodeficiency virus type 1 integrase (Human immunodeficiency virus 1, UniProt Q7ZJM1)
Sequence (Q7ZJM1 whole entry): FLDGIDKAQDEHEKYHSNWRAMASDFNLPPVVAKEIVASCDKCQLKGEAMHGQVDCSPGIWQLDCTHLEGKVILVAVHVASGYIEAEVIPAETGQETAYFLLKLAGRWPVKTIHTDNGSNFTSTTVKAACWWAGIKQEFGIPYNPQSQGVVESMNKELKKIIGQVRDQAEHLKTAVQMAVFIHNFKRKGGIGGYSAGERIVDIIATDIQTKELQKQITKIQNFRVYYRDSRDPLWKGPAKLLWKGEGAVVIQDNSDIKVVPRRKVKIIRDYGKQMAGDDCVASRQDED
assayNotes: Inhibition of recombinant HIV-1 integrase by strand-transfer assay
valueKind: pIC50
Notebook: values listed as pIC50 are -log10 of the concentration (mol/L).

Sample records with pIC50:
COCCNC(=O)c1c(O)c2ncc(Cc3ccc(F)cc3)cc2n(CC(=O)N2CCN(C)CC2)c1=O = 7.55
CNC(=O)c1c(O)c2ncc(Cc3ccc(F)cc3)cc2n(CC(=O)NCCOC)c1=O = 8.17
CNC(=O)c1c(O)c2ncc(Cc3ccc(F)cc3)cc2n(CC(=O)NCC2CC2)c1=O = 8.10

Now examine the next entry.
Data request: GET /values?readout=pIC50&item= CNC(=O)c1c(O)c2ncc(Cc3ccc(F)cc3)cc2n(CC(=O)NCC(F)(F)F)c1=O
Data returned: 8.15

====

assayNotes: Oral bioavailability in dog at 5 mg/kg
Assay type: ADME, organism-based, Canis lupus familiaris
studyConditions: in vivo
valueKind: bioavailability

Sample records with bioavailability:
COCCNC(=O)c1c(O)c2ncc(Cc3ccc(F)cc3)cc2n(CC(=O)N(C)C)c1=O = 7%
CNC(=O)c1c(O)c2ncc(Cc3ccc(F)cc3)cc2n(CC(=O)N(C)C)c1=O = 75%

Now examine the next entry.
Data request: GET /values?readout=bioavailability&item= CNC(=O)Cn1c(=O)c(C(=O)NCCOC)c(O)c2ncc(Cc3ccc(F)cc3)cc21
Data returned: 111%

====

assayNotes: Plasma clearance in cynomolgus monkey at 1 mg/kg, iv
Measured clearance by item

Sample records with clearance:
COCCNC(=O)c1c(O)c2ncc(Cc3ccc(F)cc3)cc2n(CC(=O)N(C)C)c1=O = 9.2 mL/min/kg
CNC(=O)c1c(O)c2ncc(Cc3ccc(F)cc3)cc2n(CC(=O)N(C)C)c1=O = 6.3 mL/min/kg

Data request: GET /values?readout=clearance&item= CNC(=O)Cn1c(=O)c(C(=O)NCCOC)c(O)c2ncc(Cc3ccc(F)cc3)cc21
Data returned: 2 mL/min/kg

====

Measured IC50 by item
Test system: Human immunodeficiency virus
assayNotes: Antiviral activity against pseudotyped HIV by luciferase reporter gene assay
Type: functional, organism-based
studyConditions: Human immunodeficiency virus 1
Provide only the numeric value, understood in nM.

Sample records with IC50:
CN(C)C(=O)Cn1c(=O)c(C(=O)NC2CC2)c(O)c2ncc(Cc3ccc(F)cc3)cc21 = 9.3
CCN(CC)C(=O)Cn1c(=O)c(C(=O)NC)c(O)c2ncc(Cc3ccc(F)cc3)cc21 = 9.2

Data request: Recorded IC50 for COCCNC(=O)c1c(O)c2ncc(Cc3ccc(F)cc3)cc2n(CC(N)=O)c1=O with Human immunodeficiency virus, please?
Data returned: 4.3

Data request: Recorded IC50 for CN(C)C(=O)Cn1c(=O)c(C(=O)NCCO)c(O)c2ncc(Cc3ccc(F)cc3)cc21 with Human immunodeficiency virus, please?
Data returned: 17

Data request: Recorded IC50 for C[C@H](O)CNC(=O)c1c(O)c2ncc(Cc3ccc(F)cc3)cc2n(CC(=O)N(C)C)c1=O with Human immunodeficiency virus, please?
Data returned: 7.1

Data request: Recorded IC50 for CNC(=O)Cn1c(=O)c(C(=O)NCCOC)c(O)c2ncc(Cc3ccc(F)cc3)cc21 with Human immunodeficiency virus, please?
Data returned: 3

Data request: Recorded IC50 for COCCNC(=O)c1c(O)c2ncc(Cc3ccc(F)cc3)cc2n(CC(=O)NC2CC2)c1=O with Human immunodeficiency virus, please?
Data returned: 3

Data request: Recorded IC50 for COCCNC(=O)c1c(O)c2ncc(Cc3ccc(F)cc3)cc2n(CC(=O)N2CCCCC2)c1=O with Human immunodeficiency virus, please?
Data returned: 3.6

Data request: Recorded IC50 for COCCNC(=O)c1c(O)c2ncc(Cc3ccc(F)cc3)cc2n(CC(=O)N2CCN(C)CC2)c1=O with Human immunodeficiency virus, please?
Data returned: 5.3

Data request: Recorded IC50 for COCCNC(=O)c1c(O)c2ncc(Cc3ccc(F)cc3)cc2n(CC(=O)N2CCOCC2)c1=O with Human immunodeficiency virus, please?
Data returned: 3.5

Data request: Recorded IC50 for C[C@@H](O)CNC(=O)c1c(O)c2ncc(Cc3ccc(F)cc3)cc2n(CC(=O)N(C)C)c1=O with Human immunodeficiency virus, please?
Data returned: 11

Data request: Recorded IC50 for COCCNC(=O)c1c(O)c2ncc(Cc3ccc(F)cc3)cc2n(CC(=O)N(C)C)c1=O with Human immunodeficiency virus, please?
Data returned: 3.1

Data request: Recorded IC50 for CNC(=O)c1c(O)c2ncc(Cc3ccc(F)cc3)cc2n(CC(=O)NCCN(C)C)c1=O with Human immunodeficiency virus, please?
Data returned: 42

Data request: Recorded IC50 for CN(C)C(=O)Cn1c(=O)c(C(=O)NCCN2CCOCC2)c(O)c2ncc(Cc3ccc(F)cc3)cc21 with Human immunodeficiency virus, please?
Data returned: 19
